- System: Plasmodium falciparum
- Method notes: Screen against P. falciparum Asexual Blood Stage (ABS), at 5uM
- Type: functional, Dd2
- Cond: tested at 5 uM
About 2,100 (3.2%) of roughly 65,000 compounds showed an effect of 50% or more. The median lay at about -52%. This is one part of a sample in which strong results are shown more often than they occur.
Decide using INHIBITION alone. Strictly below -40%: True. Equal to or above -40%: False.

compound="c1ccc(-c2ncc(CN3CCCCC3CCn3cccn3)cn2)nc1 (stereo not drawn)" label_class=False
compound=NCc1ccccc1Sc1ccc(O)cc1 label_class=False
compound="Cc1ccc(-c2noc(CN3CCOC(Cn4cccn4)C3)n2)cc1 (stereo not drawn)" label_class=True
compound="c1ccc(Cn2cccn2)c(CN2CCCCC2CCn2ccnc2)c1 (stereo not drawn)" label_class=False
compound="Fc1cccc(-n2ccc(CN3CCCCC3Cn3cncn3)n2)c1 (stereo not drawn)" label_class=True

Incoming: Dear colleague, could you confirm whether INHIBITION of Cc1ccccc1NC(=O)CCNC(=O)c1ccoc1 falls below -40%? Thanks.
Outgoing: False

Incoming: Dear colleague, could you confirm whether INHIBITION of COCCN1CCN(CCCS(=O)(=O)c2ccccc2)CC1C (stereo not drawn) falls below -40%? Thanks.
Outgoing: True

Incoming: Dear colleague, could you confirm whether INHIBITION of COC[C@H]1CCC[C@]12CN(CCc1ccccc1)CCO2 falls below -40%? Thanks.
Outgoing: False

Incoming: Dear colleague, could you confirm whether INHIBITION of CN(C)S(=O)(=O)N1C[C@H]2CC[C@@H](C1)N(CCC(=O)NCc1ccco1)C2 falls below -40%? Thanks.
Outgoing: True

Incoming: Dear colleague, could you confirm whether INHIBITION of Cc1ccc(N2CCC3(CCN(Cc4ccccn4)CC3)CC2)nn1 falls below -40%? Thanks.
Outgoing: False

Incoming: Dear colleague, could you confirm whether INHIBITION of COCC(=O)N1CCC2(CC1)COc1ccccc1S(=O)(=O)N(C)C2 falls below -40%? Thanks.
Outgoing: True

Incoming: Dear colleague, could you confirm whether INHIBITION of CC1CN(Cc2ccccc2)CCCN1CCCS(C)(=O)=O (stereo not drawn) falls below -40%? Thanks.
Outgoing: False

Incoming: Dear colleague, could you confirm whether INHIBITION of CC1CN(Cc2ccccc2)CCCN1CCS(C)(=O)=O (stereo not drawn) falls below -40%? Thanks.
Outgoing: False

---

- Test system: Plasmodium falciparum
- Method notes: Screen against P. falciparum Asexual Blood Stage (ABS), at 5uM
- Type: functional, Dd2
- Cond: tested at 5 uM
Hit rate of the full screen: of about 65,000 compounds, about 2,100 (3.2%) showed an effect of 50% or more. The median lay at about -52%. This is one part of a sample in which strong results are shown more often than they occur.
Entries and their measured INHIBITION follow.
Answer in %, number only, no unit symbol.

Field: example entries. Status: answers known.
compound="Cc1cc(C2CCCN(CCC(=O)N3CCc4ccccc43)C2)n[nH]1 (centres undefined)" experimental_endpoint=INHIBITION observed=62.9
compound=CCOC(=O)c1ccccc1NC(=O)CN(C)Cc1ccccc1Cl experimental_endpoint=INHIBITION observed=8.05
compound="Cc1cc(C2CCCN(CC(=O)N3CCc4ccccc43)C2)n[nH]1 (centres undefined)" experimental_endpoint=INHIBITION observed=-81.5
compound="CNc1cncc(C2CCCN2Cc2ccn(C)n2)n1 (centres undefined)" experimental_endpoint=INHIBITION observed=-1.9
compound=Cc1cccc2c(CCNC(=O)[C@H](N)c3ccccc3)c[nH]c12 experimental_endpoint=INHIBITION observed=61.2
compound=CCOCc1nc2c(c(N(C)Cc3snnc3C)n1)CCNCC2 experimental_endpoint=INHIBITION observed=-48
compound=O=C(C[C@@H]1COC[C@H]2CN(CC3CCOCC3)C[C@@H]12)N1CCCCO1 experimental_endpoint=INHIBITION observed=-22.4
compound=N[C@@H](C(=O)N1CCN(c2ccccc2Cl)C(=O)C1)c1ccccc1 experimental_endpoint=INHIBITION observed=-17.6

Incoming: Request the reported INHIBITION associated with COC(=O)COc1cc(NCc2c(C)noc2C)c(Cl)cc1C
Outgoing: -49.6

Incoming: Request the reported INHIBITION associated with NC(C(=O)N1CCSc2ccccc2C1)c1ccccc1 (centres undefined)
Outgoing: 60.9

Incoming: Request the reported INHIBITION associated with COc1nc2ccn(CCNc3cc(C)ccn3)c(=O)c2cc1C#N
Outgoing: 51.7
